Measured EC50, listed per entry for reference.
Biological target: full-length beta-Catenin (Uniprot ID P35222) (Homo sapiens (Human)) (UniProt P35222)
Sequence (P35222 2-781 limits assumed): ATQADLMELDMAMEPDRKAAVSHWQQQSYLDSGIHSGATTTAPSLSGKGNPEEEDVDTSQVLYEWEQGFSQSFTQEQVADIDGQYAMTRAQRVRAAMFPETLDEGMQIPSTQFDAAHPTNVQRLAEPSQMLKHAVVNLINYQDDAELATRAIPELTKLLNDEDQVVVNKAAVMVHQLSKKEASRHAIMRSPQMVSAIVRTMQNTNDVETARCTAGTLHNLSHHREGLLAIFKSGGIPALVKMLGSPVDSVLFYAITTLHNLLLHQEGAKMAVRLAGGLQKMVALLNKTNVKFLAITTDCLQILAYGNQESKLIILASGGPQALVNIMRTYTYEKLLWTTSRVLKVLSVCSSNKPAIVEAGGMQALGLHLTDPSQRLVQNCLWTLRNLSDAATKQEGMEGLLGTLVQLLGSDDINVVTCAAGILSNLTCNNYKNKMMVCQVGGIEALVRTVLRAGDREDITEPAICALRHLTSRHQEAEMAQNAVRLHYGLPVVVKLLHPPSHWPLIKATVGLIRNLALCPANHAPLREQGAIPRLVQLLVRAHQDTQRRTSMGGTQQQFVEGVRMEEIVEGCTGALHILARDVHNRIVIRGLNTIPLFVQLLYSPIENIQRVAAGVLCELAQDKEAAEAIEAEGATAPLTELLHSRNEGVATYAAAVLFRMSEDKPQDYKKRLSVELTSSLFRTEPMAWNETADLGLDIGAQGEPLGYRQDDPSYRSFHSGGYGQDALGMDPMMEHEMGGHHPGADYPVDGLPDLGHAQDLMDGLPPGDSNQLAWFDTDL
Experiment: fluorescence polarization competition; 10 nM full-length beta-catenin + 10 nM 5FAM-TCF4 10-53 as competitor probe
Starred links: 1 amine or outer side, 2 acyl side, 3 side chain; linkers in the order of their positions; H or OH if unused. Positions of bridges follow the written chain, without caps; N, C: chain ends. Non-standard residues stand in square brackets, D forms with d. Primed or numbered codes have the meaning given here. PyrS2″ = (S)-3-amino-1-((pent-4-en-1-yloxy)carbonyl)pyrrolidine-3-carboxylic acid (stapling residue), C=CCCCOC(=O)N1CC[C@@](N[*:1])(C(=O)[*:2])C1; B5(5) = 2,2-bis(4-pentenyl)glycine, 2-amino-2-(pent-4-en-1-yl)hept-6-enoic acid (stitching residue), C=CCCCC(CCCC=C)(N[*:1])C(=O)[*:2]; Phe(2-Cl) = N[C@@H](Cc1ccccc1Cl)C(=O)O; Bta = N[C@@H](Cc1csc2ccccc12)C(=O)O; αAllylPro = C=CC[C@@]1(C(=O)O)CCCN1; tBuAla = CC(C)(C)C[C@H](N)C(=O)O; 3Thi = N[C@@H](Cc1ccsc1)C(=O)O
Return type: number; implicit unit nM.

Ac-[αAllylPro]F[tBuAla][B5(5)]DDAADN[PyrS2″][3Thi][Bta]Q-OH (staple 1-4, 4-11) [I-1027] | 1140
Ac-[αAllylPro]D[tBuAla][B5(5)]DEAAFT[PyrS2″][Phe(2-Cl)][Bta][dT]-NH2 (staple 1-4, 4-11) [I-1037] | 30
Ac-[αAllylPro]D[tBuAla][B5(5)]DEAAFS[PyrS2″][Phe(2-Cl)][Bta][dT]-NH2 (staple 1-4, 4-11) [I-1036] | 29

Lab note: next binder to report on.
For Ac-[αAllylPro]D[tBuAla][B5(5)]DEAAFF[PyrS2″][Phe(2-Cl)][Bta][dT]-NH2 (staple 1-4, 4-11) [I-1038] , what is its reported EC50?
101
